B1: tRNA (parent)
chain: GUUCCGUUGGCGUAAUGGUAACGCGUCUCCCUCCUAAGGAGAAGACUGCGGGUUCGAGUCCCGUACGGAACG

# Variants of: B1
# assay: yeast fitness relative to wild type (ratio to wild type); higher = fitter; tRNA-Arg(CCU), competitive growth, 37 C, YPD
Fewer inactive variants are shown than the library holds.
# yeast fitness values compiled below
Give the figure by itself; no unit, no explanation.

G12A C27A C29U = 0.981
U13C C66U = 0.932
U19A A21C G25C G68C = 0.752
A15C G17C = 0.62
A20U G68C = 0.86
C30U U54G U59G = 0.655

Task item: Form field: reported yeast fitness of G25A U28G G58A C66G
Reply: 0.61

Task item: Form field: reported yeast fitness of U26A A36G A70U
Reply: 0.584

Task item: Form field: reported yeast fitness of U7A A14G
Reply: 0.709

Task item: Form field: reported yeast fitness of U59A C66A
Reply: 0.63
